System: cdk6/cyclin D2 (Homo sapiens)
Sequence (Q00534 whole entry, species assumed): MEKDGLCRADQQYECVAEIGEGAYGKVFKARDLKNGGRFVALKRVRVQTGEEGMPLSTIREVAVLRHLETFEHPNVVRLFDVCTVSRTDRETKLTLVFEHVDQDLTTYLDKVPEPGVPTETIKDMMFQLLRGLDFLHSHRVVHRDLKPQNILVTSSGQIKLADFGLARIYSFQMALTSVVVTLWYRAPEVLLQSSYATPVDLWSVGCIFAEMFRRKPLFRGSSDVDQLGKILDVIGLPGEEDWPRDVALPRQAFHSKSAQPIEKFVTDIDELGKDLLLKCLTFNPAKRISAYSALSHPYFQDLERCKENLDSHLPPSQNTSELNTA
Sequence (P30279 whole entry partner, species assumed): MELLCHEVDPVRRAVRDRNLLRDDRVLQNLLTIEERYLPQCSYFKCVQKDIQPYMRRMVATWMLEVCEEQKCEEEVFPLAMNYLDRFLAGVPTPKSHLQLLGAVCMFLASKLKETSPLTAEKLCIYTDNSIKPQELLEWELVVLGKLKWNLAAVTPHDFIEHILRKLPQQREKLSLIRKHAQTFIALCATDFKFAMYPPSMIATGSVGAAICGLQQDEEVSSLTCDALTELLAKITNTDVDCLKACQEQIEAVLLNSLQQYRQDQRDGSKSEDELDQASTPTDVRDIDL
Test Summary: cdk6/cyclin D2 kinase assay
Condition Set: 15 μM ATP
Protocol: Kinases activities were assayed in Buffer A or C (unless otherwise stated), at 30° C., at a final ATP concentration of 15 μM. Blank values were subtracted and activities calculated as pmoles of phosphate incorporated for a 10 min. incubation (usually expressed in % of the maximal activity, i.e. without inhibitors). Controls were performed with appropriate dilutions of Me2SO. In some cases phosphorylation of the substrate was assessed by autoradiography after SDS-PAGE. […]
Endpoint Label: IC50 (nM)

{"columns": ["Chemical Smiles", "Observed"],
 "data": [
  ["NC1=NC(=O)C(=C2CCNC(=O)c3[nH]c(Br)cc32)N1", 700]
]}

###

Each entry below lists one item and its recorded IC50 value.
System: CDK1/cyclin B
Test Summary: CDK1/cyclin B kinase assay (histone H1)
Assay type: biochemical, starfish (Marthasterias glacialis)
Condition Set: 15 μM ATP; −(x) = no effect at highest concentration x tested

{"columns": ["Molecule", "IC50"],
 "data": [
  ["NC1=N[C@H]2c3c([nH]c(Br)c3Br)C(=O)N3CCC[C@]23N1", "> 100 µM"],
  ["O=C1N[C@H]2n3c(cc(Br)c3Br)C(=O)N3CCC[C@]23N1", "> 10 µM"],
  ["Nc1ncc(/C=C/CNC(=O)c2cc(Br)c[nH]2)[nH]1", "> 100 µM"],
  ["Nc1ncc(C2=CCNC(=O)c3[nH]c(Br)c(Br)c32)[nH]1", "70 µM"],
  ["Nc1nc([C@H]2[C@H](CNC(=O)c3cc(Br)c[nH]3)[C@@H](CNC(=O)c3cc(Br)c[nH]3)[C@@H]2c2c[nH]c(N)n2)c[nH]1", "> 100 µM"],
  ["Nc1ncc(/C=C/CNC(=O)c2ccc[nH]2)[nH]1", "> 100 µM"],
  ["O=C([O-])c1ccc[n+](CCOC(=O)c2cc(Br)c[nH]2)c1", "> 100 µM"],
  ["NC1=NC(=O)/C(=C/CCNC(=O)c2cc(Br)c(Br)[nH]2)N1 [dispacamide A]", "> 100 µM"],
  ["Nc1ncc(C2c3nc(N)[nH]c3CC(CNC(=O)c3cc(Br)c(Br)[nH]3)C2CNC(=O)c2cc(Br)c(Br)[nH]2)[nH]1 (centres unmarked)", "> 100 µM"],
  ["Nc1ncc(/C=C/CNC(=O)c2cc(Br)c(Br)[nH]2)[nH]1", "> 100 µM"],
  ["O=C1NC(=O)/C(=C2/CCNC(=O)c3[nH]c(Br)cc32)N1", "4 µM"]
]}

###

System: protein kinase C α (Homo sapiens, UniProt P17252)
Endpoint Label: IC50

{"columns": ["Chemical Smiles", "System", "Endpoint Label", "Observed"],
 "data": [
  ["NC1=NC(=O)C(=C2CCNC(=O)c3[nH]c(Br)cc32)N1", "protein kinase C α (Homo sapiens, UniProt P17252)", "IC50", "700 nM"]
]}

###

Each entry below lists one item and its recorded IC50 value.
System: cdk5/p25 (Homo sapiens, UniProt Q00535)
Sequence (Q00535 whole entry, species assumed): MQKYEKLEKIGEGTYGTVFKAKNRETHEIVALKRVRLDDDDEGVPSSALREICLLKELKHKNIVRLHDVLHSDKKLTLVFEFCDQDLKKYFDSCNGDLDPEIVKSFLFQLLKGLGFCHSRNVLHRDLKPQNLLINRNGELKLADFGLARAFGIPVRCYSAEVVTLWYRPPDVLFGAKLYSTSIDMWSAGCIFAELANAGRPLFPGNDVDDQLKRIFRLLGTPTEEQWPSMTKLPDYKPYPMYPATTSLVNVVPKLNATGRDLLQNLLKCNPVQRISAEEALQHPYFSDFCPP
Sequence (Q15078 99-307 partner limits assumed, species assumed): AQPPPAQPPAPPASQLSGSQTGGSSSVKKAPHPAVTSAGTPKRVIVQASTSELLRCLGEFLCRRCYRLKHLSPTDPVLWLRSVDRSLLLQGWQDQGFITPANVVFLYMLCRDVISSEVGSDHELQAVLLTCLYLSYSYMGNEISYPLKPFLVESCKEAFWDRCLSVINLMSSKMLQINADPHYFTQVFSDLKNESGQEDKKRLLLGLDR
Test Summary: CDK5/p25 kinase assay
Condition Set: 15 μM ATP; −(x) = no effect at highest concentration x tested

{"columns": ["Compound", "IC50"],
 "data": [
  ["Nc1ncc(C2c3nc(N)[nH]c3CC(CNC(=O)c3cc(Br)c(Br)[nH]3)C2CNC(=O)c2cc(Br)c(Br)[nH]2)[nH]1 (stereo not shown)", "> 100 µM"],
  ["Nc1ncc(/C=C/CNC(=O)c2ccc[nH]2)[nH]1", "> 100 µM"],
  ["Nc1ncc(/C=C/CNC(=O)c2cc(Br)c(Br)[nH]2)[nH]1", "50 µM"],
  ["Nc1ncc(C2=CCNC(=O)c3[nH]c(Br)c(Br)c32)[nH]1", "> 100 µM"],
  ["Nc1nc([C@H]2[C@H](CNC(=O)c3cc(Br)c[nH]3)[C@@H](CNC(=O)c3cc(Br)c[nH]3)[C@@H]2c2c[nH]c(N)n2)c[nH]1", "> 100 µM"],
  ["NC1=NC(=O)/C(=C/CCNC(=O)c2cc(Br)c(Br)[nH]2)N1 [dispacamide A]", "> 100 µM"],
  ["O=C1NC(=O)/C(=C2/CCNC(=O)c3[nH]c(Br)cc32)N1", "7 µM"]
]}

###

System: casein kinase 1
Test Summary: casein kinase 1 assay
Condition Set: 15 μM ATP; −(x) = no effect at highest concentration x tested; read-out: IC50 casein kinase 1 (CK 1)
Each entry below lists one item and its recorded IC50 value.

{"columns": ["Molecule", "IC50"],
 "data": [
  ["NC1=N[C@H]2c3c([nH]c(Br)c3Br)C(=O)N3CCC[C@]23N1", "> 100 µM"],
  ["O=C1NC(=O)/C(=C2/CCNC(=O)c3[nH]c(Br)cc32)N1", "4.5 µM"],
  ["NC1=NC(=O)/C(=C/CCNC(=O)c2cc(Br)c(Br)[nH]2)N1 [dispacamide A]", "> 100 µM"],
  ["Nc1ncc(/C=C/CNC(=O)c2ccc[nH]2)[nH]1", "> 100 µM"]
]}

###

System: CDK1/cyclin B
Test Summary: CDK1/cyclin B kinase assay (histone H1)
Assay type: biochemical, starfish (Marthasterias glacialis)
pIC50: −log10 of the molar value.

{"columns": ["Molecule", "System", "pIC50"],
 "data": [
  ["NC1=NC(=O)C(=C2CCNC(=O)c3[nH]c(Br)cc32)N1 [hymenialdisine]", "CDK1/cyclin B", 7.66]
]}

###

System: protein kinase C ζ (Homo sapiens, UniProt Q05513)
Sequence (Q05513 whole entry): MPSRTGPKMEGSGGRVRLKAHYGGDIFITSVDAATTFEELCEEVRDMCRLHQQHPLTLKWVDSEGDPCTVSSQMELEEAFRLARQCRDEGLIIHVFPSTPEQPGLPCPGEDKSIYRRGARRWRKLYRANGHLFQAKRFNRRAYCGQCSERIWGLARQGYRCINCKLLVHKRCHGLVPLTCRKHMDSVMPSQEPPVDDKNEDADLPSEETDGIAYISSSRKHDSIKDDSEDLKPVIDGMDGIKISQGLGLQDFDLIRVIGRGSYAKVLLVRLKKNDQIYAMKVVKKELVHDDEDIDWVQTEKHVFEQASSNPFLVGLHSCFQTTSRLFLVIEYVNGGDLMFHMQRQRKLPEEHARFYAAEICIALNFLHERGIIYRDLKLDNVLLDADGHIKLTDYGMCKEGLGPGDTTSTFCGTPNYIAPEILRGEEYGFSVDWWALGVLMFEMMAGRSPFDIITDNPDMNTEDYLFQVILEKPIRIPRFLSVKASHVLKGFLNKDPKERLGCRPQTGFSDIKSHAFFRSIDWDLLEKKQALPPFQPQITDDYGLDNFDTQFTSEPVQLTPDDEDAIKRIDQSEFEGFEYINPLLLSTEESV

{"columns": ["Chemical Smiles", "System", "IC50 [µM]"],
 "data": [
  ["NC1=NC(=O)C(=C2CCNC(=O)c3[nH]c(Br)cc32)N1", "protein kinase C ζ (Homo sapiens, UniProt Q05513)", 60]
]}

###

System: cdk5/p25 (Homo sapiens)
Test Summary: CDK5/p25 kinase assay
Condition Set: 15 μM ATP; −(x) = no effect at highest concentration x tested
Each entry below lists one item and its recorded IC50 value.
Endpoint Label: IC50

{"columns": ["Chemical Smiles", "Endpoint Label", "Observed"],
 "data": [
  ["Nc1ncc(/C=C/CNC(=O)c2cc(Br)c[nH]2)[nH]1", "IC50", "4 µM"],
  ["NC1=N[C@H]2c3c([nH]c(Br)c3Br)C(=O)N3CCC[C@]23N1", "IC50", "> 100 µM"],
  ["O=C([O-])c1ccc[n+](CCOC(=O)c2cc(Br)c[nH]2)c1", "IC50", "> 100 µM"],
  ["O=C1N[C@H]2n3c(cc(Br)c3Br)C(=O)N3CCC[C@]23N1", "IC50", "> 100 µM"]
]}

###

System: protein kinase C δ (Homo sapiens)
Sequence (Q05655 whole entry): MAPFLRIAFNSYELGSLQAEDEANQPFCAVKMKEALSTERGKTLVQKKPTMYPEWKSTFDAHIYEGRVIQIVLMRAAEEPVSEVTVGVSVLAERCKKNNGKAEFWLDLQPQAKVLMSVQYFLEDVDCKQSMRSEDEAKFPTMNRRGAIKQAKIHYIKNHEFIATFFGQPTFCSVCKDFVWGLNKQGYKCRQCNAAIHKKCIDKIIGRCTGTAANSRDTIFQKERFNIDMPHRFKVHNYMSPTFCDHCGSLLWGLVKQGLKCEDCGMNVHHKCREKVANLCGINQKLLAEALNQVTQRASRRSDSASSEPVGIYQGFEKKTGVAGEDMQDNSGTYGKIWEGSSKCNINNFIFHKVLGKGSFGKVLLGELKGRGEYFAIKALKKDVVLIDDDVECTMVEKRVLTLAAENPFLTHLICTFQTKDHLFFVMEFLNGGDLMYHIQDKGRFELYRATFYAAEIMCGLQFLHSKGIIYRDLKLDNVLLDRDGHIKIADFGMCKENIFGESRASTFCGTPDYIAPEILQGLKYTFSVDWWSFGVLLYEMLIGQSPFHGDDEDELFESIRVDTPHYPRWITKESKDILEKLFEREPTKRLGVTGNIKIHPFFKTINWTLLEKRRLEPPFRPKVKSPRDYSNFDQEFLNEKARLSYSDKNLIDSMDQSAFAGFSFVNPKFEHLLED

{"columns": ["Compound", "U", "IC50"],
 "data": [
  ["NC1=NC(=O)C(=C2CCNC(=O)c3[nH]c(Br)cc32)N1 [hymenialdisine]", "µM", 1.1]
]}

###

System: c-src tyrosine kinase (Homo sapiens, UniProt P12931)
Sequence (P12931 whole entry): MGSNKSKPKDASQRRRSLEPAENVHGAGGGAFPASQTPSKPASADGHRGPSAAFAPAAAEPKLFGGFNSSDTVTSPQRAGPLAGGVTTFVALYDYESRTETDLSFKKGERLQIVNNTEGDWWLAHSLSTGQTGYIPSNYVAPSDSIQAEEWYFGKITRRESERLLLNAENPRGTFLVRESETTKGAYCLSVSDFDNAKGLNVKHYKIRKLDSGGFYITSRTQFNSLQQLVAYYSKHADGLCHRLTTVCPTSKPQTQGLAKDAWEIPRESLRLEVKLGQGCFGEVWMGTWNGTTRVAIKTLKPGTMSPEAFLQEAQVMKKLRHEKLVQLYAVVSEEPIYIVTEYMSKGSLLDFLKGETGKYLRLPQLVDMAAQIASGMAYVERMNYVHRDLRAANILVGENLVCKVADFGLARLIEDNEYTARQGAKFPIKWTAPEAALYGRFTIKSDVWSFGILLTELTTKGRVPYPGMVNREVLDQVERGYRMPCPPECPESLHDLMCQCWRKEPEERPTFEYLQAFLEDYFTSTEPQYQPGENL
pIC50: −log10 of the molar value.

{"columns": ["Chemical Smiles", "pIC50"],
 "data": [
  ["NC1=NC(=O)C(=C2CCNC(=O)c3[nH]c(Br)cc32)N1", 5.15]
]}

###

System: casein kinase 1
Test Summary: casein kinase 1 assay
Format: biochemical
Condition Set: 15 μM ATP; −(x) = no effect at highest concentration x tested; read-out: IC50 casein kinase 1 (CK 1)
Protocol: Kinases activities were assayed in Buffer A or C (unless otherwise stated), at 30° C., at a final ATP concentration of 15 μM. Blank values were subtracted and activities calculated as pmoles of phosphate incorporated for a 10 min. incubation (usually expressed in % of the maximal activity, i.e. without inhibitors). Controls were performed with appropriate dilutions of Me2SO. In some cases phosphorylation of the substrate was assessed by autoradiography after SDS-PAGE. […]
Each entry below lists one item and its recorded IC50 value.
Endpoint Label: IC50

{"columns": ["Molecule", "System", "Endpoint Label", "Observed"],
 "data": [
  ["O=C([O-])c1ccc[n+](CCOC(=O)c2cc(Br)c[nH]2)c1", "casein kinase 1", "IC50", "> 100 µM"],
  ["O=C1N[C@H]2n3c(cc(Br)c3Br)C(=O)N3CCC[C@]23N1", "casein kinase 1", "IC50", "> 10 µM"],
  ["Nc1ncc(C2c3nc(N)[nH]c3CC(CNC(=O)c3cc(Br)c(Br)[nH]3)C2CNC(=O)c2cc(Br)c(Br)[nH]2)[nH]1 (centres unmarked)", "casein kinase 1", "IC50", "> 100 µM"],
  ["Nc1ncc(/C=C/CNC(=O)c2cc(Br)c[nH]2)[nH]1", "casein kinase 1", "IC50", "> 100 µM"],
  ["Nc1nc([C@H]2[C@H](CNC(=O)c3cc(Br)c[nH]3)[C@@H](CNC(=O)c3cc(Br)c[nH]3)[C@@H]2c2c[nH]c(N)n2)c[nH]1", "casein kinase 1", "IC50", "> 100 µM"],
  ["NC1=NC(=O)C(=C2CCNC(=O)c3[nH]c(Br)cc32)N1", "casein kinase 1", "IC50", "0.035 µM"],
  ["Nc1ncc(/C=C/CNC(=O)c2cc(Br)c(Br)[nH]2)[nH]1", "casein kinase 1", "IC50", "> 100 µM"],
  ["Nc1ncc(C2=CCNC(=O)c3[nH]c(Br)c(Br)c32)[nH]1", "casein kinase 1", "IC50", "> 100 µM"]
]}

Reference source for all entries: patent US7098204B2
